This collection of values is drawn from patent US4291164A.

- Tested on: Pseudomonas putida F264
- EXPERIMENTAL_PROTOCOL: Antibacterial activity, Heart Infusion Agar Dilution Method, Pseudomonas putida F264
- Format: cell-based
- TEST_PARAMETERS: pH 7.2, read-out: Minimum Inhibitory Concentration
RESULT_TYPE: MIC (µg/mL)
Numeric answer only, unit µg/mL assumed.

Asked: Query the reported MIC for Pseudomonas putida F264; item: C[C@@H]1C=C(C(=O)O)N2C(=O)[C@@H](NC(=O)[C@H](N)c3ccccc3)[C@H]2C1 (relative stereo)
Given back: 100

Asked: Query the reported MIC for Pseudomonas putida F264; item: CO/N=C(\C(=O)N[C@@H]1C(=O)N2C(C(=O)O)=CCC[C@H]12)c1csc(N)n1 (relative stereo)
Given back: 0.1
